This listing pairs compounds with measured growth.
test system: HCT-15 colon; assay: NCI-60 one-dose screen, 48 h (100 = growth as untreated, 0 = no growth, -100 = all killed); details: 10 µM unless noted
Compounds without any hit were thinned out: in the full panel of roughly 83,000, 20% have a hit.

compound	study_target	growth (%)
C#CC#CC#CC#CC#CC#CC#CC#CCC1OCC(COC(=O)O[C@@H](C(=O)O[C@H]2C[C@@]3(O)[C@@H](OC(=O)c4ccccc4)[C@@H]4[C@]5(OC(C)=O)CO[C@@H]5C[C@H](O)[C@@]4(C)C(=O)[C@H](OC(C)=O)C(=C2C)C3(C)C)[C@@H](NC(=O)c2ccccc2)c2ccccc2)O1 (stereo partly specified)	HCT-15 colon	66.8
CC(C)(C)c1cc(C=Nc2cccc(C(F)(F)F)c2)c(O)c(C(C)(C)C)c1	HCT-15 colon	83.7
CCN(CC)CCN(CCN(CC)CC)c1ccccc1	HCT-15 colon	104
N=C(N)c1ccc(-c2ccc(-c3ccc(Cl)cc3Cl)s2)cc1F	HCT-15 colon	-75.7
CN1CCN(Cc2ccc(NC(=O)c3cncc(C#Cc4cnn5ccccc45)c3)cc2C(F)(F)F)CC1	HCT-15 colon	0.133
CCN(CC)CCNC(=O)c1ccc(-c2nc3ccc4[nH]ncc4c3c3c2CCCC3)cc1	HCT-15 colon	28.3
COC1=CC(c2ccc[nH]2)=N/C1=C\c1[nH]c(C)c(CC(=O)OCc2ccccc2)c1C	HCT-15 colon	-11
O=C1Nc2ccc(F)cc2/C1=C\c1nc(-c2ccccc2F)n2ccccc12	HCT-15 colon	26.3
CC[C@@H](c1ccc2cc(OC)ccc2c1)C(C)(C)C(=O)F	HCT-15 colon	104
O=C(Cn1cc(CN2C(=O)c3ccccc3S2(=O)=O)nn1)Nc1cccc(Cl)c1	HCT-15 colon	98.2
O=C1c2cc3c(cc2-c2c1c1ccc(Cl)cc1c(=O)n2C[C@H](O)CO)OCO3	HCT-15 colon	4.59
Cc1cc(C)cc(Nc2ccc([N+](=O)[O-])c(NCCN3CCOCC3)n2)c1	HCT-15 colon	11.5
Cn1ccnc1C(=O)/C=C/c1ccc(C(=O)Nc2ccc(F)cc2)cc1	HCT-15 colon	0.589
COc1ccc(-c2ccc(=O)oc2C#Cc2cc(OC)c(OC)c(OC)c2)cc1O	HCT-15 colon	22.5
O=C(N/N=C/c1ccc(Cl)cc1Cl)c1ccc2nc(-c3ccc(Cl)cc3)[nH]c2c1	HCT-15 colon	4.69
Cc1ccc(N=Nc2c(N)nn(-c3ccccc3)c2N)cc1	HCT-15 colon	21
C[C@H]1[C@H](C)CC[C@]2(C(=O)O)CC[C@]3(C)C(=CC[C@@H]4[C@@]5(C)C[C@@H](Cc6cn([C@@H]7O[C@H](CO)[C@@H](O)[C@H](O)[C@H]7O)nn6)[C@H](O)C(C)(C)[C@@H]5CC[C@]43C)[C@H]12	HCT-15 colon	102
CCOC(=O)c1c(NC(=O)c2ccc(OC)cc2)sc2c(CN(C)C)c(O)ccc12	HCT-15 colon	52.5
O=C1NC(=O)c2c1c1c3ccccc3[nH]c1c1oc3cc(Br)ccc3c21	HCT-15 colon	70.4
Cc1cccc(NC(=O)CSc2nc3ccc([N+](=O)[O-])cc3[nH]2)c1	HCT-15 colon	75.1
CCCCCCCCNc1cc2c3c(c1)CCCN3CCC2	HCT-15 colon	17.9
Cn1cc(-c2ccc3cc(-c4ccc(CC(=O)Nc5cc(C(C)(C)C)on5)cc4)cnc3c2)cn1	HCT-15 colon	10.9
CCCCNC1=C(OCC)C(=O)c2ccccc2C1=O	HCT-15 colon	94.3
O=c1[nH]cnc2c1C(c1ccc(Br)cc1)c1sc3c(F)cccc3c1O2 (stereo unspecified)	HCT-15 colon	99.2
Cc1cc(C)c(-c2c(O)c(Br)c(-c3c(C)cc(C)c(Br)c3C)c(O)c2Br)c(C)c1Br	HCT-15 colon	10.2
C[N+](C)(C/C=C/c1ccccc1)Cc1ccccc1	HCT-15 colon	97.8
CC(C)CCSc1nc(Nc2ccccc2)c(C#N)c(-c2ccccc2)n1	HCT-15 colon	55.3
Cc1ccc(C(=O)c2ccc(CC(=O)N/N=C/c3ccc(O)cc3O)n2C)cc1	HCT-15 colon	16.8
C/C(=N\Nc1nc(C)cs1)c1cc2ccccc2o1	HCT-15 colon	98.8
N#Cc1c(-c2ccccc2)c(C#N)c2c(C#N)c(N)nn2c1N	HCT-15 colon	24.3
COc1cccc(NC(=O)c2cccc(C3CCc4c(cc(OC)c(OC)c4OC)O3)c2)c1 (stereo unspecified)	HCT-15 colon	63.2
O=C(NCc1ccccc1O)c1cccc2ccccc12	HCT-15 colon	68.9
O=C1/C(=C/c2ccc(C(F)(F)F)cc2)COc2ccc(O)c(O)c21	HCT-15 colon	-6.49
CC1=C(C(=O)n2c3ccccc3c3ccccc32)C(c2cccc([N+](=O)[O-])c2)C(C(=O)n2c3ccccc3c3ccccc32)=C(C)N1	HCT-15 colon	81.9
CCOC(=O)C1=C(c2ccccc2)N=c2s/c(=C/c3ccc(Br)cc3)c(=O)n2C1c1ccc(O)cc1 (stereo unspecified)	HCT-15 colon	82.3
C#CC#CC#CC#CC#CC#CC#CC#CC[C@H]1OC[C@@H](COC(=O)O[C@@H](C(=O)O[C@H]2C[C@@]3(O)[C@@H](OC(=O)c4ccccc4)[C@@H]4[C@]5(OC(C)=O)CO[C@@H]5C[C@H](O)[C@@]4(C)C(=O)[C@H](OC(C)=O)C(=C2C)C3(C)C)[C@@H](NC(=O)c2ccccc2)c2ccccc2)O1	HCT-15 colon	95.2
